- assay-explanation: logP by HPLC on reversed-phase columns (C 18), EEC Directive 79/831 Annex V.A8
- Format: physicochemical
- condition: method marker [b] (compound 257: pH2.7)
measurement-kind: logP

compound | logP
Clc1cccc(Nc2ncc(Cl)c(NC3CCCCC3)n2)c1 [Example 258] | 3.81[b]
C=C(C)CNc1nc(Nc2ccccc2)ncc1Cl [Example 288] | 2.62[b]
CCCCN(C)c1nc(Nc2cccc(SC)c2)ncc1Cl [Example 282] | 3.9[b]
CC(C)Nc1nc(Nc2cccc(C=O)c2)ncc1Cl [Example 252] | 1.86[b]
Cc1cnc(Nc2ccccc2)nc1NC(C)(C)C [Example 297] | 1.48[b]

Here are 6 compounds. What values of logP were reported for them?
1. CC(C)(C)OC(=O)N1CCN(c2ccc(Nc3ncc(Cl)c(NC4CCCCC4)n3)cc2)CC1 [Example 264]
2. CC(C)CN(C)c1nc(Nc2ccccc2)ncc1Cl [Example 270]
3. OCCNc1nc(Nc2ccccc2)ncc1Cl [Example 285]
4. Brc1cnc(Nc2ccccc2)nc1NC1CCCC1 [Example 253]
5. C=CCCNc1nc(Nc2ccccc2)ncc1Cl [Example 294]
6. CC(C)=CCNc1nc(Nc2ccccc2)ncc1Cl [Example 289]

Out:
["2.95[b]", "3[b]", "0.7[b]", "2.47[b]", "1.87[b]", "2.17[b]"]

Here are 2 compounds. What values of logP were reported for them?
1. CC(C)Nc1nc(Nc2cccc(C(F)F)c2)ncc1Cl [Example 281]
2. CN(C)S(=O)(=O)c1ccc(Nc2ncc(Cl)c(NC3CCCCC3)n2)cc1 [Example 263]

Out:
1: 2.4[b]; 2: 3.18[b]

Here are 4 compounds. What values of logP were reported for them?
1. CNc1cccc(Nc2ncc(Cl)c(NC(C)C)n2)c1 [Example 292]
2. CCCCCNc1nc(Nc2ccccc2)ncc1Cl [Example 278]
3. Clc1cnc(Nc2ccccc2)nc1NC1CCCCC1 [Example 259]
4. CC(C)Nc1nc(Nc2ccccc2)ncc1Br [Example 247]

Out:
1. 1.32[b]
2. 2.41[b]
3. 2.53[b]
4. 1.89[b]
